testedTarget: His-EBNA1 (DNA binding domain of EBNA1, amino acids 459-607) (Epstein-Barr virus, UniProt P03211)
Construct: made in house; host or cells: E. coli
Sequence (P03211 459-607): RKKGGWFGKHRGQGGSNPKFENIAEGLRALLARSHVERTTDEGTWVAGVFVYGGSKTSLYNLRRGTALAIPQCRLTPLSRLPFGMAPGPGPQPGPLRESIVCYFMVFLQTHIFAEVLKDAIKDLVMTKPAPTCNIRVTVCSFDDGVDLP
methodNotes: Inhibition of 5′-biotin-oPL4624 binding to His-EBNA1 using Alpha Screen technology
testParameters: Alpha Screen Activity (IC50, inhibition of 5′-biotin-oPL4624 binding to His-EBNA1), 15 nM His-EBNA1, 0.2 nM bt-oPL4624, 2 hr room temperature
pIC50: −log10 of the molar value.
Please respond with reported pIC50 for every item in the list.

// query Look at this molecule and give its reported pIC50. "COc1cc(O)cc(-c2c(C#Cc3ccncc3)cccc2C(=O)O)c1"
// result 4.00 to 5.00

// query Look at this molecule and give its reported pIC50. "COC(=O)c1c[nH]c2cc(-c3c(C#Cc4ccccc4)cccc3C(=O)O)ccc12"
// result 5.00 to 6.00

// query Look at this molecule and give its reported pIC50. "CC(C)(O)C#Cc1cccc(C(=O)O)c1-n1cccc1"
// result > 6.00

// query Look at this molecule and give its reported pIC50. "CN(C)S(=O)(=O)c1cccc(C#Cc2cccc(C(=O)O)c2F)c1"
// result 4.00 to 5.00

// query Look at this molecule and give its reported pIC50. "CC(=O)Nc1cccc(C#Cc2cccc(C(=O)O)c2-n2c(C)ccc2C)c1"
// result 4.00 to 5.00

// query Look at this molecule and give its reported pIC50. "C(#Cc1c[nH]c2ncccc12)c1cccc(-c2nnn[nH]2)c1"
// result 4.00 to 5.00

// query Look at this molecule and give its reported pIC50. "Cn1ncc2ccc(-c3c(C#Cc4ccccc4)cccc3C(=O)O)cc21"
// result 4.00 to 5.00

// query Look at this molecule and give its reported pIC50. "CN(CC#Cc1cccc(C(=O)O)c1-n1cccc1)Cc1ccccc1"
// result > 6.00

// query Look at this molecule and give its reported pIC50. "Cn1cc(-c2c(C#Cc3ccccc3)cccc2C(=O)O)cn1"
// result 5.00 to 6.00

###

testedTarget: His-EBNA1 (DNA binding domain of EBNA1, amino acids 459-607) (Epstein-Barr virus, UniProt P03211)
pIC50: −log10 of the molar value.
Please respond with reported pIC50 for every item in the list.

// query Look at this compound and give its reported pIC50. "Cc1nn(C)c(C)c1-c1c(C#Cc2ccccc2)cccc1C(=O)O"
// result 3.00 to 4.00

// query Look at this compound and give its reported pIC50. "NC1(C#Cc2cccc(C(=O)O)c2-n2cccc2)CCCCC1"
// result > 6.00

// query Look at this compound and give its reported pIC50. O=C(O)c1cccc(C#Cc2ccccc2)c1N1CCCC1c1ccccc1 (stereo not drawn)
// result 5.00 to 6.00

// query Look at this compound and give its reported pIC50. "CN(C)S(=O)(=O)NC(=O)c1cccc(C#Cc2ccccc2)c1-n1cccc1"
// result 5.00 to 6.00

// query Look at this compound and give its reported pIC50. "O=C(O)c1cccc(C#Cc2cccc(O)c2)c1-n1cccc1"
// result > 6.00

// query Look at this compound and give its reported pIC50. "O=C(O)c1cccc(C#Cc2ccccc2)c1NCc1ccccc1"
// result 4.00 to 5.00

// query Look at this compound and give its reported pIC50. "O=C(O)c1cccc(C#Cc2ccccc2)c1-c1cc2ccccc2o1"
// result 5.00 to 6.00

// query Look at this compound and give its reported pIC50. "O=C(O)c1cccc(/C=C/c2ccc(F)cc2)c1-n1cccc1"
// result 4.00 to 5.00

// query Look at this compound and give its reported pIC50. "CS(=O)(=O)c1ccc(-c2c(C#Cc3ccccc3)cccc2C(=O)O)cc1"
// result 4.00 to 5.00
